# EC50 listing for each entry below
Test system: HCMV
Experiment Notes: HCMV semi-automated CPE-inhibition assay in human foreskin fibroblast cells
Type: cell-based, human cytomegalovirus
Test Context: Human betaherpesvirus 5, Fibroblast; Table II

• CCCc1cc(=O)oc2c3c(c4c(c12)OC(C)(C)C=C4)OC(C)C(C)(C)C3=O (racemic) [(±)-15a] = > 100 µg/mL
• CCCc1cc(=O)oc2c1c1c(c3oc(C)c(C)c(=O)c32)C=CC(C)(C)O1 = > 100 µg/mL
• CCCc1cc(=O)oc2c3c(c4c(c12)OC(C)(C)C=C4)O[C@H](C)[C@@H](C)[C@@H]3O [(+)-1, (+)-Calanolide A] = > 20 µg/mL
• CCCc1cc(=O)oc2c3c(c4c(c12)OC(C)(C)C=C4)O[C@H](C)[C@H](C)C3=O [(+)-7a] = > 4 µg/mL
• CCCc1cc(=O)oc2c3c(c4c(c12)OC(C)(C)C=C4)O[C@H](C)[C@@H](C)C3=O [(+)-7] = 0.11 µg/mL

Now for a further compound.
Return reported EC50; argument: CCCc1cc(=O)oc2c3c(c4c(c12)OC(C)(C)C=C4)OC(C)(C)C(C)C3=O (racemic) [(±)-15b] > 20 µg/mL

----------
Test system: CEM-SS cells
Experiment Notes: CEM-SS MTT assay, cytotoxicity (Table I)
Type: cell-based, human
# pIC50 listing for each entry below
Note on units: pIC50 is unitless, being -log10 of a concentration expressed in mol/L.

Example cases with answers are listed next.
- CCCc1cc(=O)oc2c3c(c4c(c12)OC(C)(C)C=C4)OC(C)C(C)(C)C3O (racemic) [(±)-16b]: 4.77
- CCCc1cc(=O)oc2c3c(c4c(c12)OC(C)(C)C=C4)OC(C)(C)C(C)C3O (racemic) [(±)-16c]: 4.67
- CCCc1cc(=O)oc2c3c(c4c(c12)OC(C)(C)C=C4)OC(C)C(C)C3=O (racemic) [(±)-7a]: 4.92

Return reported pIC50; argument: CCCc1cc(=O)oc2c(C(=O)C(C)C(C)(C)O)c(O)c3c(c12)OC(C)(C)C=C3 (racemic) [(±)-14b] 4.57

Next entry: CCCc1cc(=O)oc2c3c(c4c(c12)OC(C)(C)C=C4)OC(CC)C(C)C3O (racemic) [(±)-16e] 4.85

----------
System: HCMV isolates Towne, AD169, E. Mann, Coffman, C9208
Experiment Notes: Anti-CMV plaque reduction assay against various laboratory and clinical isolates (Example 40)
Type: cell-based, human cytomegalovirus
Test Context: Human betaherpesvirus 5, AD169, isolate Towne
Procedure: On the date of assay, the drug is made up at twice the desired concentration in 2x MEM and then serially diluted 1:5 in 2x MEM using six concentrations of drug. The initial starting concentration is usually 200 gg/mL down to 0.06 μg/mL. […] At the end of 4-6hr incubation period, the stain is aspirated, and plaques counted using a stereomicroscope at lOx magnification. […]
Measure Name: pEC50
Note on units: pEC50 is unitless, being -log10 of a concentration expressed in mol/L.

HCMV isolates Towne, AD169, E. Mann, Coffman, C9208 / pEC50 / CCCc1cc(=O)oc2c3c(c4c(c12)OC(C)(C)C=C4)O[C@H](C)[C@@H](C)C3=O [(+)-7] : value? 5.30
